Hey, just so you know, these numbers are from ChEMBL document CHEMBL5512616.

Sequence of the target: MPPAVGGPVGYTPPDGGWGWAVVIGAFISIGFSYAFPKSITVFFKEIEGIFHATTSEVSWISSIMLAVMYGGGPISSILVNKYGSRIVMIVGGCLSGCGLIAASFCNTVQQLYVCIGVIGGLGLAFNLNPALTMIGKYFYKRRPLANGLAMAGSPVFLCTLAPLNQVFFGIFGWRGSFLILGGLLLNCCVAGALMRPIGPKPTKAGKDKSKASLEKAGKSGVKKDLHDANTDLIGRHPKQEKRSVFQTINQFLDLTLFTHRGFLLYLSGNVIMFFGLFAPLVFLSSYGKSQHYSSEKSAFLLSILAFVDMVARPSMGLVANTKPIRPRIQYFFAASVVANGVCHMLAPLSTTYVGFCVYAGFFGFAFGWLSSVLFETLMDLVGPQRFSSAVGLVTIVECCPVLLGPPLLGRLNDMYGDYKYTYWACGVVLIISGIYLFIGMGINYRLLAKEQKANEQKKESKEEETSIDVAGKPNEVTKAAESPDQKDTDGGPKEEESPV
Below: a set of entries, each annotated with reported IC50.

CCOC(=O)N1CCC(=C2c3ccc(Cl)cc3CCc3cccnc32)CC1	~100 µM

Using known records, supply IC50 for CC(C)c1c(C(=O)Nc2ccccc2)c(-c2ccccc2)c(-c2ccc(F)cc2)n1CC[C@@H](O)C[C@@H](O)CC(=O)O
> 210 µM

----------
- assay.target: Carbonic anhydrase 2 (Homo sapiens, UniProt P00918)
measurement.label: Ki

O=C(Oc1ccc2c(-c3ccccc3)cc(=O)oc2c1)c1ccccc1	> 10 µM
N#Cc1cc2ccc(O)cc2oc1=O	> 200 µM

Report the value of Ki obtained on Carbonic anhydrase 2 (Homo sapiens, UniProt P00918) for O=c1ccc2cc(-n3cc(CNc4ccc(Br)cc4)nn3)ccc2o1 .
> 50 µM

----------
- assay.target: UniProtKB P53985
measurement.label: IC50 (nM)
Value expressed in nM; do not type the unit.

Using known records, supply IC50 for CCOC(=O)Oc1c(OC)cc(C(=O)O[C@@H]2C[C@@H]3CN4CCc5c([nH]c6cc(OC)ccc56)[C@H]4C[C@@H]3[C@H](C(=O)OC)[C@H]2OC)cc1OC [SYROSINGOPINE]
2500

----------
Quick record of IC50 values for Sodium/hydrogen exchanger 1 (Homo sapiens).
Record the result as number plus unit.

CC(C)CN(C)c1nc(N)c(C(=O)N=C(N)N)nc1Cl [5-(N-METHYL-N-ISOBUTYL)AMILORIDE]	174 nM

Please examine the following record next.
Report the value of IC50 obtained on Sodium/hydrogen exchanger 1 (Homo sapiens) for Cc1nc(C(=O)N=C(N)N)c(N)nc1N1CCCOCC1 .
Sequence (P19634 whole entry): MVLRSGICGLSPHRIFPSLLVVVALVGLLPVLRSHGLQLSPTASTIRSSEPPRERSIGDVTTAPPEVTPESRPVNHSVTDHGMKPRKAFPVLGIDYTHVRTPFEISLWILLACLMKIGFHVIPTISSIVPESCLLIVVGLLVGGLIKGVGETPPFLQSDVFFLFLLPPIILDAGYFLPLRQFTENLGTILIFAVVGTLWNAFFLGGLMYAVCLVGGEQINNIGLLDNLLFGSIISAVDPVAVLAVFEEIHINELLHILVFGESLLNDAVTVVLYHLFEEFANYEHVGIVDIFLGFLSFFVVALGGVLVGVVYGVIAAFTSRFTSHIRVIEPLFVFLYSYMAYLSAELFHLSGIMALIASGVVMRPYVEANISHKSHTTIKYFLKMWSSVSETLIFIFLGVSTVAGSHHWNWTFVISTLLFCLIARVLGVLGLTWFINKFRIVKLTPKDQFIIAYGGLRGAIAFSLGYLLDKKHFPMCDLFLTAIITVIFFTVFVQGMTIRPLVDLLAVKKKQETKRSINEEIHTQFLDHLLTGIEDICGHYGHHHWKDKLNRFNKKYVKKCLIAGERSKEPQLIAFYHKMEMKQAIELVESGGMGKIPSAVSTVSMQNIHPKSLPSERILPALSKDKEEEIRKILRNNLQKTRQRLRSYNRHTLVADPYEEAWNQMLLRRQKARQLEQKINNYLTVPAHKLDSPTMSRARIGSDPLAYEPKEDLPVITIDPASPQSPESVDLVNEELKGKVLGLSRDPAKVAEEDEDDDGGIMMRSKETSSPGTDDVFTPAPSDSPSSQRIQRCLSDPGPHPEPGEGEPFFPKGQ
85 nM

----------
Quick record of pKi values for UniProtKB Q16790.
// pKi is dimensionless: -log10 of concentration (M)

NS(=O)(=O)c1ccc(CN/C=C/C(=O)/C=C/c2cc3ccccc3oc2=O)cc1	8.05

Report the value of pKi obtained on UniProtKB Q16790 for Cc1cccc(N2C(=O)CSC2c2cn(-c3ccccc3)nc2-c2cc3ccccc3oc2=O)c1 (configuration not stated) .
7.21

----------
Quick record of IC50 values for Monocarboxylate transporter 1 (Homo sapiens).
Value expressed in nM; do not type the unit.

Report the value of IC50 obtained on Monocarboxylate transporter 1 (Homo sapiens) for O=C(CCc1ccc(O)cc1)c1c(O)cc(O)cc1O .
2570

Report the value of IC50 obtained on Monocarboxylate transporter 1 (Homo sapiens) for O=c1cc(-c2ccc(O)c(O)c2)oc2cc(O)cc(O)c12 .
410

Report the value of IC50 obtained on Monocarboxylate transporter 1 (Homo sapiens) for O=c1c(O)c(-c2ccc(O)cc2O)oc2cc(O)cc(O)c12 .
6210
